Data origin, for the record: paper PMC11017298

# target: human 20S proteasome T-L activity (Homo sapiens, UniProt Q99436)
# Construct: human RBC proteasome was purchased from South Bay Bio; purchased South Bay Bio; host or cells: human red blood cells
# assay-procedure: Fluorometric kinetic enzyme assay, 20S proteasome T-L activity (Ac-RLR-AMC)
# Type: biochemical
# condition-description: human 20S proteasome, Ac-RLR-AMC; N.I. = no inhibition at 130 μM; read-out: IC50 20S Proteasome T-L Activity
pIC50: −log10 of the molar value.
Each item that follows carries a reported pIC50.

>>> obs_value("CC(C)C[C@@H](C=O)NC(=O)[C@@H]1Cc2ccc(cc2)Oc2cc(ccc2[N+](=O)[O-])C[C@H](NC(=O)OCc2ccccc2)C(=O)N[C@@H](CC(C)C)C(=O)N1 [compound 16, reference compound]")
"< 3.89"

## Task Given CC(=O)N[C@H]1Cc2ccc([N+](=O)[O-])c(c2)Oc2ccc3c(c2)C(C[C@@H](C(=O)N[C@@H](CC(C)C)C(=O)[C@@]2(C)CO2)NC(=O)[C@H](CC(C)C)NC1=O)C(=O)N3 (some centres unmarked) , report its pIC50 on human 20S proteasome T-L activity (Homo sapiens, UniProt Q99436).
## Result < 3.89

## Task Jot down pIC50 (human 20S proteasome T-L activity (Homo sapiens, UniProt Q99436)) of CC(=O)N[C@H]1Cc2ccc([N+](=O)[O-])c(c2)Oc2ccc(cc2)C[C@@H](C(=O)N[C@@H](CC(C)C)C(=O)[C@@]2(C)CO2)NC(=O)[C@H](CC(C)C)NC1=O [15a] .
## Result < 3.89

## Task State pIC50 on human 20S proteasome T-L activity (Homo sapiens, UniProt Q99436). Entry: CC(=O)N[C@H]1Cc2ccc([N+](=O)[O-])c(c2)Oc2ccc3c(c2)C(C[C@@H](C(=O)N[C@@H](CC(C)C)C(N)=O)NC(=O)[C@H](CC(C)C)NC1=O)C(=O)N3 (some centres unmarked)
## Result 4.34

## Task Enter pIC50 (test system human 20S proteasome T-L activity (Homo sapiens, UniProt Q99436)) for CC(=O)N[C@H]1Cc2ccc([N+](=O)[O-])c(c2)Oc2ccc(cc2)CC[C@@H](C(=O)N[C@@H](CC(C)C)C(=O)[C@@]2(C)CO2)NC(=O)[C@H](CC(C)C)NC1=O [15b]
## Result < 3.89
